Hello, the source for this data is BigSolDB 2.1, in case you need it.

# TEST_SETTINGS: in water, 314.5 K
QUANTITY_NAME: solubility (mole fraction)
Answer with a number only.

Ask | Return reported solubility (mole fraction). Input molecule: Cn1c(=O)c2[nH]cnc2n(C)c1=O
Reply | 0.0007

---

# TEST_SETTINGS: in ethanol, 327.4 K
QUANTITY_NAME: solubility (mole fraction)
Answer with a number only.

Ask | Return reported solubility (mole fraction). Input molecule: Cn1c(=O)c2c(ncn2CCO)n(C)c1=O
Reply | 0.0029

---

# TEST_SETTINGS: in ethanol, 293.15 K
QUANTITY_NAME: solubility (mole fraction)
Answer with a number only.

Ask | Return reported solubility (mole fraction). Input compound: Cn1cnc2c1c(=O)[nH]c(=O)n2C
Reply | 1.53e-05

---

# TEST_SETTINGS: in n-octanol, 351.8 K
QUANTITY_NAME: solubility (mole fraction)
Answer with a number only.

Ask | Return reported solubility (mole fraction). Input molecule: Cn1c(=O)c2c(ncn2CCO)n(C)c1=O
Reply | 0.0149

---

# TEST_SETTINGS: in n-octanol, 335.2 K
QUANTITY_NAME: solubility (mole fraction)
Answer with a number only.

Ask | Return reported solubility (mole fraction). Input molecule: Cn1c(=O)c2c(ncn2CCO)n(C)c1=O
Reply | 0.006

---

# TEST_SETTINGS: in water, 303.15 K
QUANTITY_NAME: solubility (mole fraction)
Answer with a number only.

Ask | Return reported solubility (mole fraction). Input compound: Cn1cnc2c1c(=O)[nH]c(=O)n2C
Reply | 0.00101

---

# TEST_SETTINGS: in n-octanol, 298.15 K
QUANTITY_NAME: solubility (mole fraction)
Answer with a number only.

Ask | Return reported solubility (mole fraction). Input molecule: Cn1cnc2c1c(=O)[nH]c(=O)n2C
Reply | 0.000433

---

# TEST_SETTINGS: in ethanol, 332.8 K
QUANTITY_NAME: solubility (mole fraction)
Answer with a number only.

Ask | Return reported solubility (mole fraction). Input compound: Cn1c(=O)c2[nH]cnc2n(C)c1=O
Reply | 0.005

---

# TEST_SETTINGS: in ethanol, 309.4 K
QUANTITY_NAME: solubility (mole fraction)
Answer with a number only.

Ask | Return reported solubility (mole fraction). Input molecule: Cn1c(=O)c2[nH]cnc2n(C)c1=O
Reply | 0.0008

---

# TEST_SETTINGS: in n-octanol, 308.15 K
QUANTITY_NAME: solubility (mole fraction)
Answer with a number only.

Ask | Return reported solubility (mole fraction). Input molecule: Cn1cnc2c1c(=O)[nH]c(=O)n2C
Reply | 0.00061

---

# TEST_SETTINGS: in n-octanol, 343.8 K
QUANTITY_NAME: solubility (mole fraction)

Ask | Return reported solubility (mole fraction). Input molecule: Cn1c(=O)c2[nH]cnc2n(C)c1=O
Reply | 0.0045

---

# TEST_SETTINGS: in ethanol, 313.9 K
QUANTITY_NAME: solubility (mole fraction)
Answer with a number only.

Ask | Return reported solubility (mole fraction). Input molecule: Cn1c(=O)c2c(ncn2CCO)n(C)c1=O
Reply | 0.001

---

# TEST_SETTINGS: in n-octanol, 352.1 K
QUANTITY_NAME: solubility (mole fraction)
Answer with a number only.

Ask | Return reported solubility (mole fraction). Input compound: Cn1c(=O)c2[nH]cnc2n(C)c1=O
Reply | 0.0063
